# reported half-life at 0.5 μM; entries follow
# procedure.text: Mouse liver microsome stability assay
# Format: in vitro ADME
# condition.set: male, CD1, mouse, microsomes, pH 7.4
Give the quantity in h, number only.

Consider the worked cases shown below.
Cn1cc(-c2cc(S(C)(=O)=O)ccc2Oc2ccc(F)cc2F)c2cc(C(=O)NCC(F)(F)F)[nH]c2c1=O [Example 254]    1.52
Cn1cc(-c2cc(NS(C)(=O)=O)ccc2Oc2ccc(F)cc2Cl)c2cc[nH]c2c1=O [Example 34]    0.583
Cn1cc(-c2cc(S(C)(=O)=O)ccc2OC2CCOC2)c2cc[nH]c2c1=O (stereo not shown) [Example 205]    1.97

State the recorded half-life at 0.5 μM for this entry: CN1CCN(C(=O)c2cc3c(-c4cc(S(C)(=O)=O)ccc4Oc4ccc(F)cc4F)cn(C)c(=O)c3[nH]2)CC1 [Example 256]
1.18

----------
# system.name: human BRD4 second bromodomain (BDII_E352-M457) (Homo sapiens (Human), UniProt O60885)
# procedure.text: TR-FRET bromodomain binding assay, BRD4 second bromodomain
pKi: −log10 of the molar value.
Please mark MET if the recorded pKi is equal to or greater than 8, and NOT MET if it falls below.

COc1ccccc1Oc1ccc(S(C)(=O)=O)cc1-c1cn(C)c(=O)c2[nH]ccc12    MET
CCS(=O)(=O)Nc1cc(-c2cn(C)c(=O)c3[nH]ccc23)c(Oc2ccc(F)cc2F)cc1C#N    MET
Cn1cc(-c2ccccc2C(=O)N2CCOCC2)c2cc[nH]c2c1=O    NOT MET

Form field: pKi at least 8? Entry: CCS(=O)(=O)N(CCN1CCCC1=O)c1ccc(Oc2ccc(F)cc2F)c(-c2cn(C)c(=O)c3[nH]ccc23)c1
NOT MET

Similarly, Cn1cc(-c2cc(C(N)=O)ccc2Oc2ccccc2)c2cc[nH]c2c1=O ?
MET

Similarly, CCS(=O)(=O)c1ccc(OC2CCSCC2)c(-c2cn(C)c(=O)c3[nH]ccc23)c1 ?
MET

Similarly, Cn1cc(-c2cc(S(N)(=O)=O)cnc2NC2CCCCC2)c2cc[nH]c2c1=O ?
MET

Similarly, CCS(=O)(=O)Nc1ccc(OC2CCCOC2)c(-c2cn(C)c(=O)c3[nH]ccc23)c1 (stereo not shown) ?
MET

Similarly, Cc1c(NS(C)(=O)=O)ccc(OCC2CC2)c1-c1cn(C)c(=O)c2[nH]ccc12 ?
NOT MET

Similarly, Cn1cc(-c2cc(NS(=O)(=O)CCF)ccc2Oc2ccc(C#N)cc2)c2cc[nH]c2c1=O ?
NOT MET

Similarly, Cn1cc(-c2cc(S(C)(=O)=O)ccc2Oc2ccc(F)cc2F)c2cc(COc3cccnc3)[nH]c2c1=O ?
NOT MET

Similarly, Cn1cc(-c2cc(S(C)(=O)=O)ccc2OC[C@@H]2CCC(=O)N2)c2cc[nH]c2c1=O ?
NOT MET

Similarly, Cn1nc(-c2cc(NS(C)(=O)=O)ccc2Oc2ccc(F)cc2F)c2cc[nH]c2c1=O ?
NOT MET

Similarly, CCS(=O)(=O)c1ccc(O[C@H]2CC[C@H](O)CC2)c(-c2cn(C)c(=O)c3[nH]ccc23)c1 ?
MET

----------
# procedure.text: Human liver microsome stability assay
# Type: in vitro ADME
# condition.set: both sexes, human, microsomes, pH 7.4
Decide using half-life at 0.5 μM alone. Strictly below 40 min: MET. Equal to or above 40 min: NOT MET.

Cn1cc(-c2cc(S(C)(=O)=O)ccc2Oc2cc(F)ccc2F)c2cc[nH]c2c1=O [Example 173]    MET
Cn1cc(-c2cc(S(=O)(=O)N3CCCC3)ccc2Oc2ccc(F)cc2F)c2cc[nH]c2c1=O [Example 299]    MET
Cn1cc(-c2cc(NS(C)(=O)=O)ccc2OC2CCOC2)c2cc[nH]c2c1=O (centres unmarked) [Example 31]    NOT MET
CNS(=O)(=O)Nc1ccc(OC2CCCOC2)c(-c2cn(C)c(=O)c3[nH]ccc23)c1 (centres unmarked) [Example 108]    MET
Cn1cc(-c2cc(C(=O)NCC(C)(C)O)ccc2Oc2ccc(F)cc2F)c2cc[nH]c2c1=O [Example 123]    NOT MET
Cn1cc(-c2cc(NS(=O)(=O)CCN3CCOCC3)ccc2Oc2ccc(F)cc2F)c2cc[nH]c2c1=O [Example 295]    MET

Strictly below 40 min in half-life at 0.5 μM? Cn1cc(-c2cc(C(=O)Nc3ccc4cn[nH]c4c3)ccc2Oc2ccc(F)cc2F)c2cc[nH]c2c1=O [Example 118]
NOT MET

Similarly, Cn1cc(-c2cc(NS(C)(=O)=O)ccc2Oc2ccccc2)c2cc[nH]c2c1=O [Example 4] ?
NOT MET
